# system: BuChE (UniProt P81908)
# Construct: 120 min incubation; BuChE IC50
# Type: biochemical, human or equine serum
# condition context: read-out: IC50 BuChE 120 min; Table 3; 120 min incubation
Structures can show the parent of a compound that is named as a salt.
measured endpoint: pIC50
// pIC50 is dimensionless: -log10 of concentration (M)

// returns reported pIC50 for input COc1ccc(N(C)C(=O)Oc2cccc3c2CCN3)cc1 [AN-857, hydrochloride]
5.44

What about this molecule? CCN(C)C(=O)Oc1cccc2c1C(CCC(=O)O)CN2C (stereo not shown) [AN-699, hydrochloride]
5.01

What about this molecule? CCN(C)C(=O)Oc1cccc2c1C(CCC(=O)OC)CN2C (stereo not shown) [AN-698, hydrochloride]
5.17

What about this molecule? CCN(C)C(=O)Oc1ccc2c(c1)NCC2CCC(=O)O (stereo not shown) [AN-681, hydrochloride]
5.00

What about this molecule? CCN(C)C(=O)Oc1ccc2c(c1)NCC2 [AN-885, hydrochloride]
4.23

What about this molecule? CCOC(=O)CCC1CNc2cccc(OC(=O)N(C)CC)c21.O=C(O)CC(O)(CC(=O)O)C(=O)O (stereo not shown) [AN-871]
6.25

What about this molecule? CCN(C)C(=O)Oc1cccc2c1CCN2CCC(=O)OC.Cl [AN-1243, Hydrochloride]
6.15

What about this molecule? CN(C)C(=O)Oc1cccc2c1CCN2 [AN-856, hydrochloride]
5.89

What about this molecule? CCCCN(C)C(=O)Oc1cccc2c1C(CCC(=O)OC)CN2C (stereo not shown) [AN-667, hydrochloride]
3.71

What about this molecule? CCN(C)C(=O)Oc1ccc2c(CCCN)c[nH]c2c1.Cl [AN-911]
7.00

What about this molecule? CCN(C)C(=O)Oc1cccc2c1C(CCC(=O)OC)CN2 (stereo not shown) [AN-827, hydrochloride]
6.52

What about this molecule? CCN(C)C(=O)Oc1cccc2c1CCN2 [AN-854, hydrochloride]
6.15

Data credit: patent US9499484B2
